Parameter: growth. Scope: all listed entries.
# System: EKVX NSCLC
# TEST METHOD NOTES: NCI-60 one-dose screen, 48 h (100 = growth as untreated, 0 = no growth, -100 = all killed)
# ASSAY CONDITIONS: 10 µM unless noted
The panel holds about 83,000 compounds, 20% with a hit somewhere; the sample as a whole holds those more often.
ATTRIBUTE MEASURED: growth (%)

substance_smiles=Cc1ccc2cccc([N+](=O)[O-])c2n1 attribute_measured=growth value_units=% observed_result=114
substance_smiles=Cc1cc(=NO)cc(C)n1O attribute_measured=growth value_units=% observed_result=105
substance_smiles=COc1cc2c(cc1O)C(=O)CCCC2 attribute_measured=growth value_units=% observed_result=81.6

---

Attribute: growth
# Test system: HOP-92 NSCLC
# TEST METHOD NOTES: NCI-60 one-dose screen, 48 h (100 = growth as untreated, 0 = no growth, -100 = all killed)
# ASSAY CONDITIONS: 10 µM unless noted
The panel holds about 83,000 compounds, 20% with a hit somewhere; the sample as a whole holds those more often. The source made the active and inactive calls. The calls were made as follows: active = growth percent below 10; inactive = the rest.
ATTRIBUTE MEASURED: growth

compound=Nc1ccc2ccc(NS(=O)(=O)N3CCCCC3)cc2c1 observed_result="68% (inactive)"
compound=C(=N\OCCc1ccccc1)/c1ccccn1 observed_result="103% (inactive)"
compound=O=C(O)COc1ccccc1F observed_result="96.3% (inactive)"
compound=CCCCNC(=O)c1ccccc1C observed_result="96.3% (inactive)"
compound=COc1ccc(CCN=Cc2ccc(Cl)cc2)cc1OC observed_result="89.6% (inactive)"
compound=OCCCc1ccccc1 observed_result="94.7% (inactive)"
compound=Cc1cc(=NO)cc(C)n1O observed_result="111% (inactive)"
compound=O=C1c2cccnc2-c2ncccc21 observed_result="96.7% [100 µM] (inactive)"
compound="CC(CN(C)C)CN1c2ccccc2Sc2ccccc21 (stereo not drawn)" observed_result="21.4% (inactive)"
compound=CC(=O)Nc1ccc2oc(=O)ccc2c1 observed_result="95% (inactive)"
compound=CC(=O)/C(N=Nc1ccc(S(=O)(=O)c2ccc(N=N/C(C(C)=O)=C(/C)O)cc2)cc1)=C(\C)O observed_result="90.3% (inactive)"
compound=CCNC1=CC(=O)c2ncccc2C1=O observed_result="145% (inactive)"
compound=COc1ccc(CCl)c(C)c1OC observed_result="86.1% (inactive)"
compound=NNC(=O)Nc1ccccc1 observed_result="90.8% (inactive)"
compound=CC(C)(C(=O)c1cccnc1)c1cccnc1 observed_result="89.3% (inactive)"
compound=NNc1ncnc2cccc(Cl)c12 observed_result="79.7% (inactive)"
compound="C/C(=C\\c1ccccc1)C(O)C(=O)c1nc2ccc([N+](=O)[O-])cc2[nH]c1=O (stereo not drawn)" observed_result="78.9% (inactive)"
compound=CCOC(C)=N observed_result="89.7% (inactive)"

---

# System: KM12 colon
# TEST METHOD NOTES: NCI-60 one-dose screen, 48 h (100 = growth as untreated, 0 = no growth, -100 = all killed)
# ASSAY CONDITIONS: 10 µM unless noted
This is part of a sample that, as a whole, favours compounds with a hit. Of some 83,000 tested, about 20% had one in any assay. Calls of active or inactive are those of the source. The calls were made as follows: active = growth percent below 10; inactive = the rest.
List of growth values.
ATTRIBUTE MEASURED: growth

compound=NCCSSC/C=C\CSSCCN experimental_system="KM12 colon" observed_result="102% (inactive)"
compound="C/C(=C\\c1ccccc1)C(O)C(=O)c1nc2ccc([N+](=O)[O-])cc2[nH]c1=O (centres undefined)" experimental_system="KM12 colon" observed_result="90.3% (inactive)"
compound="OC1CCCN(Cc2ccccc2)C1 (centres undefined)" experimental_system="KM12 colon" observed_result="107% (inactive)"
compound=CC(C)(C)C1=CC(=O)C(C(C)(C)C)=CC1=O experimental_system="KM12 colon" observed_result="110% (inactive)"
